Values from patent US10967068B2

# PROCEDURE_TEXT: In Vitro Stability Assay—Mouse Plasma
# Type: in vitro ADME
# TEST_CONTEXT: attachment position L11B; % DAR remaining after plasma 3 or 4.5 days
*1 amine or outer side, *2 acyl side, *3 side chain or, on linkers, in order; H or OH if unused. Where a SMILES comes first, the peptide text is derived from it. [ ]: non-standard residue; d: D form. The star is where a group is joined. Dolaproine = CO[C@@H]([C@@H]1CCCN1)[C@@H](C)C(=O)O; Dil = CC[C@H](C)[C@H](NC)[C@@H](CC(=O)O)OC; Benzenesulfonyl = O=S(=O)(c1ccccc1)*; PABC = O=C(OCc1ccc(N[*:1])cc1)[*:2]; Doe = c1ccc(C[C@H](N*)c2nccs2)cc1; Cit = NC(=O)NCCC[C@H](N)C(=O)O; Aib = CC(C)(N)C(=O)O; Sar = CNCC(=O)O
Kindly state Conjugate stability (%) for each of the entries shown.
Numbers only, in %.

CC[C@H](C)[C@@H]([C@@H](CC(=O)N1CCC[C@H]1[C@H](OC)[C@@H](C)C(=O)N[C@@H](Cc1ccccc1)c1nccs1)OC)N(C)C(=O)[C@@H](NC(=O)C(C)(C)NC(=O)OCc1ccc(NC(=O)[C@H](CCCNC(N)=O)NC(=O)[C@@H](NC(=O)[C@H](CCCCN)NS(=O)(=O)c2ccccc2)C(C)C)cc1)C(C)C [Example 45] (Benzenesulfonyl-KV[Cit][PABC][Aib]V[Dil][Dolaproine]-Doe): 0
CC[C@H](C)[C@@H]([C@@H](CC(=O)N1CCC[C@H]1[C@H](OC)[C@@H](C)C(=O)N[C@@H](Cc1ccccc1)c1nccs1)OC)N(C)C(=O)[C@@H](NC(=O)C(C)(C)NC(=O)OCc1ccc(NC(=O)[C@H](CCCNC(N)=O)NC(=O)[C@@H](NC(=O)[C@H](CCCCN)NC(=O)[C@@H](N)CO)C(C)C)cc1)C(C)C [Example 38] (H-SKV[Cit][PABC][Aib]V[Dil][Dolaproine]-Doe): 90

Okay, next one:
response.value for CC[C@H](C)[C@@H]([C@@H](CC(=O)N1CCC[C@H]1[C@H](OC)[C@@H](C)C(=O)N[C@@H](Cc1ccccc1)c1nccs1)OC)N(C)C(=O)[C@@H](NC(=O)C(C)(C)NC(=O)OCc1ccc(NC(=O)[C@H](CCCNC(N)=O)NC(=O)[C@@H](NC(=O)[C@H](CCCCN)NC(=O)CNC)C(C)C)cc1)C(C)C [Example 27] (H-[Sar]KV[Cit][PABC][Aib]V[Dil][Dolaproine]-Doe) (field: Conjugate stability (%)) = 57

* * *

Provide the recorded Conjugate stability (%) for the entries that follow.
# PROCEDURE_TEXT: In Vitro Stability Assay—Mouse Plasma
# Format: in vitro ADME
# TEST_CONTEXT: attachment position L11B; % DAR remaining after plasma 3 or 4.5 days
*1 amine or outer side, *2 acyl side, *3 side chain or, on linkers, in order; H or OH if unused. Where a SMILES comes first, the peptide text is derived from it. [ ]: non-standard residue; d: D form. The star is where a group is joined. Dolaproine = CO[C@@H]([C@@H]1CCCN1)[C@@H](C)C(=O)O; Dil = CC[C@H](C)[C@H](NC)[C@@H](CC(=O)O)OC; PABC = O=C(OCc1ccc(N[*:1])cc1)[*:2]; Doe = c1ccc(C[C@H](N*)c2nccs2)cc1; Cit = NC(=O)NCCC[C@H](N)C(=O)O; Propanoyl(3-OH) = O=C(CCO)*; Aib = CC(C)(N)C(=O)O; CO = O=C([*:1])[*:2]; X2 = CC1(C(=O)*)COC1; Moc = COC(=O)*
One number for each entry, in %.

CC[C@H](C)[C@@H]([C@@H](CC(=O)N1CCC[C@H]1[C@H](OC)[C@@H](C)C(=O)N[C@@H](Cc1ccccc1)c1nccs1)OC)N(C)C(=O)[C@@H](NC(=O)C(C)(C)NC(=O)OCc1ccc(NC(=O)[C@H](CCCNC(N)=O)NC(=O)[C@@H](NC(=O)[C@@H](N)CCCCN)C(C)C)cc1)C(C)C [Example 33] (H-KV[Cit][PABC][Aib]V[Dil][Dolaproine]-Doe): 34
CC[C@H](C)[C@@H]([C@@H](CC(=O)N1CCC[C@H]1[C@H](OC)[C@@H](C)C(=O)N[C@@H](Cc1ccccc1)c1nccs1)OC)N(C)C(=O)[C@@H](NC(=O)C(C)(C)NC(=O)OCc1ccc(NC(=O)[C@H](CCCNC(N)=O)NC(=O)[C@@H](NC(=O)[C@H](CCCCN)NC(=O)CCO)C(C)C)cc1)C(C)C [Example 43] ({Propanoyl(3-OH)}-KV[Cit][PABC][Aib]V[Dil][Dolaproine]-Doe): 76
CC[C@H](C)[C@@H]([C@@H](CC(=O)N1CCC[C@H]1[C@H](OC)[C@@H](C)C(=O)N[C@@H](Cc1ccccc1)c1nccs1)OC)N(C)C(=O)[C@@H](NC(=O)C(C)(C)NC(=O)OCc1ccc(NC(=O)[C@H](CCCNC(N)=O)NC(=O)[C@@H](NC(=O)[C@H](CCCCN)NC(=O)OC)C(C)C)cc1)C(C)C [Example 32] (Moc-KV[Cit][PABC][Aib]V[Dil][Dolaproine]-Doe): 5
CC[C@H](C)[C@@H]([C@@H](CC(=O)N1CCC[C@H]1[C@H](OC)[C@@H](C)C(=O)N[C@@H](Cc1ccccc1)c1nccs1)OC)N(C)C(=O)[C@@H](NC(=O)C(C)(C)NC(=O)OCc1ccc(NC(=O)[C@H](CCCNC(N)=O)NC(=O)[C@@H](NC(=O)[C@H](CCCCN)NC(=O)C2(C)COC2)C(C)C)cc1)C(C)C [Example 30] (X2-KV[Cit][PABC][Aib]V[Dil][Dolaproine]-Doe): 5

Then there is this compound:
Summary for this compound, CC[C@H](C)[C@@H]([C@@H](CC(=O)N1CCC[C@H]1[C@H](OC)[C@@H](C)C(=O)N[C@@H](Cc1ccccc1)c1nccs1)OC)N(C)C(=O)[C@@H](NC(=O)C(C)(C)NC(=O)OCc1ccc(NC(=O)[C@H](CCCNC(N)=O)NC(=O)[C@@H](NC(=O)[C@H](CCCCN)NC(=O)NC)C(C)C)cc1)C(C)C [Example 26] ({NHMe-CO}-KV[Cit][PABC][Aib]V[Dil][Dolaproine]-Doe) : Conjugate stability (%) is 60

* * *

# PROCEDURE_TEXT: In Vitro Stability Assay—Mouse Plasma
# Type: in vitro ADME
# TEST_CONTEXT: attachment position L11B
*1 amine or outer side, *2 acyl side, *3 side chain or, on linkers, in order; H or OH if unused. Where a SMILES comes first, the peptide text is derived from it. [ ]: non-standard residue; d: D form. The star is where a group is joined. Dolaproine = CO[C@@H]([C@@H]1CCCN1)[C@@H](C)C(=O)O; Dil = CC[C@H](C)[C@H](NC)[C@@H](CC(=O)O)OC; PABC = O=C(OCc1ccc(N[*:1])cc1)[*:2]; Doe = c1ccc(C[C@H](N*)c2nccs2)cc1; Cit = NC(=O)NCCC[C@H](N)C(=O)O; Propanoyl(3-OH) = O=C(CCO)*; Isobutyryl = CC(C)C(=O)*; Aib = CC(C)(N)C(=O)O; CO = O=C([*:1])[*:2]; Piv = CC(C)(C)C(=O)*; X2 = CC1(C(=O)*)COC1; Ms = CS(=O)(=O)*; Sar = CNCC(=O)O; X3 = NCCOCC*
Note to self: DAR after plasma incubation for 3 to 4.5 days under 0.9 means YES, ties and anything higher get NO.

Example entries begin here.
CC[C@H](C)[C@@H]([C@@H](CC(=O)N1CCC[C@H]1[C@H](OC)[C@@H](C)C(=O)N[C@@H](Cc1ccccc1)c1nccs1)OC)N(C)C(=O)[C@@H](NC(=O)C(C)(C)NC(=O)OCc1ccc(NC(=O)[C@H](CCCNC(N)=O)NC(=O)[C@@H](NC(=O)[C@H](CCCCN)NS(C)(=O)=O)C(C)C)cc1)C(C)C [Example 44] (Ms-KV[Cit][PABC][Aib]V[Dil][Dolaproine]-Doe): YES
CC[C@H](C)[C@@H]([C@@H](CC(=O)N1CCC[C@H]1[C@H](OC)[C@@H](C)C(=O)N[C@@H](Cc1ccccc1)c1nccs1)OC)N(C)C(=O)[C@@H](NC(=O)C(C)(C)NC(=O)OCc1ccc(NC(=O)[C@H](CCCNC(N)=O)NC(=O)[C@@H](NC(=O)[C@H](CCCCN)NC(=O)NC)C(C)C)cc1)C(C)C [Example 26] ({NHMe-CO}-KV[Cit][PABC][Aib]V[Dil][Dolaproine]-Doe): NO
CC[C@H](C)[C@@H]([C@@H](CC(=O)N1CCC[C@H]1[C@H](OC)[C@@H](C)C(=O)N[C@@H](Cc1ccccc1)c1nccs1)OC)N(C)C(=O)[C@@H](NC(=O)C(C)(C)NC(=O)OCc1ccc(NC(=O)[C@H](CCCNC(N)=O)NC(=O)[C@@H](NC(=O)[C@H](COCCOCCN)NC(C)=O)C(C)C)cc1)C(C)C [Example 47] (Ac-S(X3)V[Cit][PABC][Aib]V[Dil][Dolaproine]-Doe): YES
CC[C@H](C)[C@@H]([C@@H](CC(=O)N1CCC[C@H]1[C@H](OC)[C@@H](C)C(=O)N[C@@H](Cc1ccccc1)c1nccs1)OC)N(C)C(=O)[C@@H](NC(=O)C(C)(C)NC(=O)OCc1ccc(NC(=O)[C@H](CCCNC(N)=O)NC(=O)[C@@H](NC(=O)[C@H](CCCCN)NC(=O)C2(C)COC2)C(C)C)cc1)C(C)C [Example 30] (X2-KV[Cit][PABC][Aib]V[Dil][Dolaproine]-Doe): YES
CC[C@H](C)[C@@H]([C@@H](CC(=O)N1CCC[C@H]1[C@H](OC)[C@@H](C)C(=O)N[C@@H](Cc1ccccc1)c1nccs1)OC)N(C)C(=O)[C@@H](NC(=O)C(C)(C)NC(=O)OCc1ccc(NC(=O)[C@H](CCCNC(N)=O)NC(=O)[C@@H](NC(=O)[C@H](CCCCN)NC(=O)C(C)C)C(C)C)cc1)C(C)C [Example 7] (Isobutyryl-KV[Cit][PABC][Aib]V[Dil][Dolaproine]-Doe): YES

Exercise: Decide: DAR after plasma incubation for 3 to 4.5 days of CC[C@H](C)[C@@H]([C@@H](CC(=O)N1CCC[C@H]1[C@H](OC)[C@@H](C)C(=O)N[C@@H](Cc1ccccc1)c1nccs1)OC)N(C)C(=O)[C@@H](NC(=O)C(C)(C)NC(=O)OCc1ccc(NC(=O)[C@H](CCCNC(N)=O)NC(=O)[C@@H](NC(=O)[C@H](CCCCN)NC(=O)C(C)(C)C)C(C)C)cc1)C(C)C [Example 2] (Piv-KV[Cit][PABC][Aib]V[Dil][Dolaproine]-Doe) strictly below 0.9?
Solution: YES

Exercise: State whether 0.9 exceeds DAR after plasma incubation for 3 to 4.5 days recorded for CC[C@H](C)[C@@H]([C@@H](CC(=O)N1CCC[C@H]1[C@H](OC)[C@@H](C)C(=O)N[C@@H](Cc1ccccc1)c1nccs1)OC)N(C)C(=O)[C@@H](NC(=O)C(C)(C)NC(=O)OCc1ccc(NC(=O)[C@H](CCCNC(N)=O)NC(=O)[C@@H](NC(=O)[C@H](CCCCN)NC(=O)[C@H](C)N)C(C)C)cc1)C(C)C [Example 34] (H-AKV[Cit][PABC][Aib]V[Dil][Dolaproine]-Doe) .
Solution: YES

Exercise: State whether 0.9 exceeds DAR after plasma incubation for 3 to 4.5 days recorded for CC[C@H](C)[C@@H]([C@@H](CC(=O)N1CCC[C@H]1[C@H](OC)[C@@H](C)C(=O)N[C@@H](Cc1ccccc1)c1nccs1)OC)N(C)C(=O)[C@@H](NC(=O)C(C)(C)NC(=O)OCc1ccc(NC(=O)[C@H](CCCNC(N)=O)NC(=O)[C@@H](NC(=O)[C@H](CCCCN)NC(=O)CNC)C(C)C)cc1)C(C)C [Example 27] (H-[Sar]KV[Cit][PABC][Aib]V[Dil][Dolaproine]-Doe) .
Solution: NO

Exercise: Input CC[C@H](C)[C@@H]([C@@H](CC(=O)N1CCC[C@H]1[C@H](OC)[C@@H](C)C(=O)N[C@@H](Cc1ccccc1)c1nccs1)OC)N(C)C(=O)[C@@H](NC(=O)C(C)(C)NC(=O)OCc1ccc(NC(=O)[C@H](CCCNC(N)=O)NC(=O)[C@@H](NC(=O)[C@H](CCCCN)NC(=O)CCO)C(C)C)cc1)C(C)C [Example 43] ({Propanoyl(3-OH)}-KV[Cit][PABC][Aib]V[Dil][Dolaproine]-Doe) ; condition: DAR after plasma incubation for 3 to 4.5 days strictly below 0.9. Does it hold?
Solution: NO

Exercise: Lab note: DAR after plasma incubation for 3 to 4.5 days threshold 0.9. Does this molecule come in strictly under it? CC[C@H](C)[C@@H]([C@@H](CC(=O)N1CCC[C@H]1[C@H](OC)[C@@H](C)C(=O)N[C@@H](Cc1ccccc1)c1nccs1)OC)N(C)C(=O)[C@@H](NC(=O)C(C)(C)NC(=O)OCc1ccc(NC(=O)[C@H](CCCNC(N)=O)NC(=O)[C@@H](NC(=O)[C@H](CCCCN)NC(=O)[C@@H](C)N)C(C)C)cc1)C(C)C [Example 35] (H-[dA]KV[Cit][PABC][Aib]V[Dil][Dolaproine]-Doe)
Solution: NO
